- subjectOfTest: PBP1a (Pseudomonas aeruginosa)
- Construct: using bacterial membranes as the source of PBPs; endogenous in cells; host or cells: P. aeruginosa ATCC 27853 membrane preparation
- Sequence (Q07806 whole entry): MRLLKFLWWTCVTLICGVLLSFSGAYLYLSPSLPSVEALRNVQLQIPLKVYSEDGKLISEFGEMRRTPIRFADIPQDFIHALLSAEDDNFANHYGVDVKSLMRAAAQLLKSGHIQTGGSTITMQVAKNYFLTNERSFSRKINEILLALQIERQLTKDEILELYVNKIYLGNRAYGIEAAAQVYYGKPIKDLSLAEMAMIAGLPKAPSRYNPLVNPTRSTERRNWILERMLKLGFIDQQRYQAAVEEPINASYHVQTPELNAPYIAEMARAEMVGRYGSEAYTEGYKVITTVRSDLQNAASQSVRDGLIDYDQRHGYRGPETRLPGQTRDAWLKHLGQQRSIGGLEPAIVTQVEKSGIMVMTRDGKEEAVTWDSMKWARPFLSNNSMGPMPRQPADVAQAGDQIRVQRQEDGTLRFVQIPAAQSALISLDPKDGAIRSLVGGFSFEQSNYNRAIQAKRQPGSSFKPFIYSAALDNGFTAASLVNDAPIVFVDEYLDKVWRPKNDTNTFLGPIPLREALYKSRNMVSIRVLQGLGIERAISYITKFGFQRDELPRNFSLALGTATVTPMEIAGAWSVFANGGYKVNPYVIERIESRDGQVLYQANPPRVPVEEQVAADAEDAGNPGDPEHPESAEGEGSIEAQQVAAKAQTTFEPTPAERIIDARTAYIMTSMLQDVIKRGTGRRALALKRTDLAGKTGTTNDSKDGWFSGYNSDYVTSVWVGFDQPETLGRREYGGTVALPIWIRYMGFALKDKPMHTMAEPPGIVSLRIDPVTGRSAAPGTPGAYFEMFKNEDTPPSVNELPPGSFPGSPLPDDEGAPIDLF
- assayProtocol: Membrane PBP binding assay, competition with Bocillin FL
assayReadout: IC50 (nM)
Please reply with the bare figure in nM and do not write the unit itself.

Give reported IC50 value for CC1(C)S[C@@H]2[C@H](NC(=O)[C@H](N)c3ccccc3)C(=O)N2[C@H]1C(=O)O [AMP, ampicillin, reference compound] 1900

* * *

- subjectOfTest: SHV-1 (Klebsiella pneumoniae, UniProt P0AD64)
- Sequence (P0AD64 23-286): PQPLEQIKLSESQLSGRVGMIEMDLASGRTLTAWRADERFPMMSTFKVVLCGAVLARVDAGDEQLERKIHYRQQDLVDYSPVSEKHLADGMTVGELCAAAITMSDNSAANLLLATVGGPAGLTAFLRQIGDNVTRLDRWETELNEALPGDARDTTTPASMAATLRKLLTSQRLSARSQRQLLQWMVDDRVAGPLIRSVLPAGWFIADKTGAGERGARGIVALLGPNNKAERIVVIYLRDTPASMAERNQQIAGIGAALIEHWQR
assayReadout: Ki (µM)
Please reply with the bare figure in µM and do not write the unit itself.

Check SHV-1 (Klebsiella pneumoniae, UniProt P0AD64) data and give Ki for CC1(C)SC2C(NC(=O)C(NC(=O)CN(CCCCNC(=O)c3cccc(O)c3O)C(=O)c3cccc(O)c3O)c3ccccc3)C(=O)N2C1C(=O)O (stereo not shown) [BAMP, bis-catechol (azotochelin)-ampicillin] . 184
